# TEST: absolute recovery over mixed-bed multilayer solid-phase extraction; higher = better recovery
# RECORDED CONDITIONS: wastewater influent; enrichment method: SPE
So basically: absolute recovery at 90% or higher? That is Fulfilled. Lower than 90%? That is Not fulfilled.

I'd appreciate it if you could say whether CC=CC(=O)N(CC)C(CC)C(=O)N(C)C (stereo unspecified) [Crotethamide] has absolute recovery at least equal to 90%.
Fulfilled

Given [O-]n1nnc2ccccc21 [1-Hydroxybenzotriazole H] , state whether its absolute recovery is at least 90%.
Not fulfilled

Hi, just wondering whether CCCc1nc2c(C)cc(-c3nc4ccccc4n3C)cc2n1Cc1ccc(-c2ccccc2C(=O)[O-])cc1 [Telmisartan] shows absolute recovery of 90% or higher.
Fulfilled

Determine whether this molecule has absolute recovery no lower than 90%: Nc1cnn(-c2ccccc2)c(=O)c1Cl [Chloridazon]
Fulfilled

Hi team, for O=P1(N(CCCl)CCCl)NCCCO1 (stereo unspecified) [Cyclophosphamid] , is the recorded absolute recovery at or above 90%?
Fulfilled

Assess whether reported absolute recovery for O=C1NCCN1Cc1ccc(Cl)nc1 [Imidacloprid-urea] sits at 90% or higher.
Fulfilled

Hi team, for COc1cccc(C2(O)CCCCC2C[NH3+])c1 (stereo unspecified) [N-Bisdesmethyl-Tramadol] , is the recorded absolute recovery at or above 90%?
Not fulfilled

Can COc1ccc2c3c1OC1C(O)CCC4C(C2)[NH+](C)CCC341 (stereo unspecified) [Dihydrocodeine] be said to have absolute recovery at or above 90%?
Fulfilled

Assess whether reported absolute recovery for CCOC(=O)OC1=C(c2cc(C)ccc2C)C(=O)NC12CCC(OC)CC2 (stereo unspecified) [Spirotetramat] sits at 90% or higher.
Not fulfilled

absolute recovery >= 90% for Cc1[nH]c(=O)n(C(C)(C)C)c(=O)c1Cl [Terbacil] ?
Fulfilled

For this molecule, is measured absolute recovery 90% or higher? CCc1cccc2c3c([nH]c12)C(CC)(CC(=O)[O-])OCC3 (stereo unspecified) [Etodolac]
Fulfilled

Determine whether this molecule has absolute recovery no lower than 90%: OC(Cn1cncn1)(Cn1cncn1)c1ccc(F)cc1F [Fluconazol]
Fulfilled

Is the recorded value of absolute recovery equal to or greater than 90% for this molecule? Nc1c(I)c(N)c(I)c(C(=O)[O-])c1I [3-5-Diamino-2-4-6-triiodobenzoic-acid]
Not fulfilled

Hi, just wondering whether CCC(=O)OC(OP(=O)(CCCCc1ccccc1)CC(=O)N1CC(C2CCCCC2)CC1C(=O)[O-])C(C)C (stereo unspecified) [Fosinopril] shows absolute recovery of 90% or higher.
Fulfilled

Form field: absolute recovery at least 90%? Entry: CC(C)(Oc1ccc(Cl)cc1)C(=O)[O-] [Clofibric-acid]
Fulfilled

Determine whether this molecule has absolute recovery no lower than 90%: CNC(=O)Oc1cc(C)c(S(C)=O)c(C)c1 (stereo unspecified) [Methiocarb-sulfoxide]
Not fulfilled

Given the entry CCN(CC)C(=O)c1cccc(C)c1 [N-N-diethyl-3-methylbenzamid (=DEET)] , answer whether its absolute recovery meets or surpasses 90%.
Fulfilled

# bool: absolute recovery of CN1C(=O)CN=C(c2ccccc2)c2cc(Cl)ccc21 [Diazepam] >= 90%
Fulfilled

Is reported absolute recovery greater than or equal to 90% here: COc1ccc(C(C[N+](C)(C)[O-])C2(O)CCCCC2)cc1 (stereo unspecified) [Venlafaxine-N-Oxide]
Not fulfilled

# check: absolute recovery of CC[NH+]1CCCC1CNC(=O)c1cc(S(=O)(=O)CC)c(N)cc1OC (stereo unspecified) [Amisulprid] is greater than or equal to 90%
Fulfilled

hey, is absolute recovery for this one >= 90%? NS(=O)(=O)Cc1noc2ccccc12 [Zonisamide]
Fulfilled

Does absolute recovery meet or surpass 90% for Cc1cc(Cl)ccc1OCCCC(=O)[O-] [MCPB] ?
Fulfilled
